Reference source for all entries: the RNAGym collection of RNA variant scans (doi:10.1093/molbev/msab373)

Reported reverse-splicing fitness values are given for each entry in this list.
B1: Azoarcus group I ribozyme (parent)
chain: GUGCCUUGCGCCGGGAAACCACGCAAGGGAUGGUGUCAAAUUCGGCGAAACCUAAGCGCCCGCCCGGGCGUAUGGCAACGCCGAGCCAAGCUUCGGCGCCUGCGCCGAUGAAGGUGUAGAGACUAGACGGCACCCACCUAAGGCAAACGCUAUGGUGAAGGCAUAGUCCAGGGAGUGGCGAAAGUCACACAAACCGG

# Variants of: B1
# assayRemarks: reverse-splicing fitness (ratio to wild type); higher = more active; in vitro selection; Mg2+ level not given
Form rule: numeric answer, no unit written next to it.

Past entries and their recorded results:
C82U A111G A120G A145U C150U C169G U176A = 0.0116
C82G A120G C169U U176A = 0.0236
A111U A120C C150U C169U U176C = 0.0362
C82A A145G C169A U176G = 0.00573

Please look up its reverse-splicing fitness: C82U A111G A120G A145U C150U C169G
0.0107

Please look up its reverse-splicing fitness: C82G A111C A120C A145C C150A C169G U176A
0.0271

Please look up its reverse-splicing fitness: C82G A120C A145G C150A C169A
0.0104

Please look up its reverse-splicing fitness: C82A A111C A120C A145U C150U C169U U176A
0.0135

Please look up its reverse-splicing fitness: C82G A111U A120C C150G
0.00875
